- System: TAB165
- test-method-notes: qHTS profiling for inhibitors of Plasmodium falciparum proliferation (AID 504749); further: nearly all actives have a fitted effect of over 60% in size
- run-parameters: P. falciparum in erythrocytes, SYBR Green DNA, 72 h; series mostly up to 28.7 µM
Results filed as inconclusive are left out. Active and inactive are the calls of the source. The call rests on the fitted dose curve; in most records, active means well fitted inhibition curve with a large enough effect; inconclusive means small, poorly fitted or top-dose-only effect; inactive means flat fitted curve, though single readings scatter.
Outcome field: choose from active, inactive

Here are 5 molecules together with their reported answers.
- O=C(O)P(=O)(O)O: inactive
- CCCCCCCC/C=C\CCCCCCCCN: inactive
- CCOCCn1c(N2CCCN(C)CC2)nc2ccccc21: inactive
- Oc1c(Cl)cc(Cl)c(Cl)c1Cc1c(O)c(Cl)cc(Cl)c1Cl: active
- CCCCCCCCOc1ccc(C(=O)c2ccccc2)c(O)c1: inactive

## Task Any idea what this test logged for CCOc1ccccc1C(N)=O ?
## Result inactive

## Task Any idea what this test logged for COc1ccc(-c2cc(C(F)F)nn2-c2ccc(S(N)(=O)=O)cc2)cc1F ?
## Result inactive

## Task Any idea what this test logged for CC(=O)N[C@@H](CCC(=O)O)C(=O)O ?
## Result inactive

## Task Any idea what this test logged for C/C=C/c1ccc(O)c(OC)c1 ?
## Result inactive

## Task Any idea what this test logged for FC(F)(F)C(F)(F)C(F)(F)C(F)(F)C(F)(F)C(F)(F)C(F)(F)C(F)(F)Br ?
## Result inactive

## Task Any idea what this test logged for C=CCN1CCc2nc(N)sc2CC1 ?
## Result inactive

## Task Any idea what this test logged for O=C(NC1CCN(CCc2c[nH]c3ccccc23)CC1)c1ccccc1 ?
## Result inactive

###

- Tested on: DIV17
- test-method-notes: qHTS profiling for inhibitors of Plasmodium falciparum proliferation (AID 504749); further: nearly all actives have a fitted effect of over 60% in size; further: potency means the concentration at half of the fitted maximal effect
- run-parameters: P. falciparum in erythrocytes, SYBR Green DNA, 72 h; series mostly up to 28.7 µM
Inconclusive results are not listed. Active and inactive are the calls of the source. The call rests on the fitted dose curve; in most records, active means well fitted inhibition curve with a large enough effect; inconclusive means small, poorly fitted or top-dose-only effect; inactive means flat fitted curve, though single readings scatter.
measure: Potency

Below, 5 compounds whose answers are already recorded.
- CCCCCCCCCCCCCCCCO: inactive
- NC(N)=NN=C(/C=C/c1ccc([N+](=O)[O-])o1)/C=C/c1ccc([N+](=O)[O-])o1: 7570 nM (active)
- NC(=O)c1ccccc1O: inactive
- Cl/C(=C\n1cncn1)c1ccc(Cl)cc1Cl: inactive
- CC1=C(C(=O)O)N2C(=O)[C@@H](NC(=O)[C@H](N)c3ccccc3)[C@H]2SC1: inactive

get_value(item= NC(=O)n1c(O)c(C(=O)c2cccs2)c2cc(Cl)ccc21 , readout=Potency) returns inactive

get_value(item= CCOc1ccc(NC(C)=O)cc1 , readout=Potency) returns inactive

get_value(item= CC(=O)NC(=O)c1ccccc1O , readout=Potency) returns inactive

get_value(item= CCN1/C(=C/C=C/c2sc3ccccc3[n+]2CC)Sc2ccccc21 , readout=Potency) returns 478 nM (active)

get_value(item= C[C@@H](O)[C@H]1C(=O)N2C(C(=O)O)=C(S[C@@H]3CN[C@H](CNS(N)(=O)=O)C3)[C@H](C)[C@H]12 , readout=Potency) returns inactive

get_value(item= CN1CCN(c2c(F)cc3c(=O)c(C(=O)O)cn4c3c2SCC4)CC1 , readout=Potency) returns inactive

get_value(item= CCCCCN=C(N)N/N=C/c1c[nH]c2ccc(OC)cc12 , readout=Potency) returns 1510 nM (active)

get_value(item= CN(CCCN1c2ccccc2CCc2ccccc21)CC(=O)c1ccc(Cl)cc1 , readout=Potency) returns 4780 nM (active)

###

- target-under-test: Cytochrome P450 2C9 (Homo sapiens)
- test-method-notes: Cytochrome P450 family 2 subfamily C member 9 (CYP2C9) small molecule antagonists: luciferase biochemical (cell-free) qHTS assay (AID 1645842); further: nearly all actives have a fitted effect of over 55% in size; further: potency means the concentration at half of the fitted maximal effect
- run-parameters: P450-Glo CYP2C9 enzyme assay, luciferin luminescence; series mostly up to 57.4 µM
Inconclusive results are not listed. Activity calls are given as the source filed them. Calls follow the shape of the dose curve; as a rule, active = well fitted inhibition curve with a large enough effect in the repeat runs; inconclusive = weak or mixed curves; inactive = no such curve, though single readings can be large or run the other way.
measure: Potency

Below, 8 compounds whose answers are already recorded.
• CCCN(CCC)S(=O)(=O)c1ccc(C(=O)O)cc1 = inactive
• Cl/C(=C\n1cncn1)c1ccc(Cl)cc1Cl = 11 µM (active)
• C[C@@]12C(=O)OC(=O)[C@]1(C)C1CCC2O1 = inactive
• CCc1nn(CCCN2CCN(c3cccc(Cl)c3)CC2)c(=O)n1CCOc1ccccc1 = inactive
• COc1cc(C(=O)NCc2ccc(OCCN(C)C)cc2)cc(OC)c1OC = inactive
• Nc1ccc(S(=O)(=O)NCc2ccccc2)cc1 = inactive
• CCN(CC)CCNc1ccc(CO)c2sc3ccccc3c(=O)c12 = inactive
• CCCc1ncc(C[n+]2ccccc2C)c(N)n1 = inactive

get_value(item= CC(C)[C@@H]1CC[C@@H](C)CC1=O , readout=Potency) returns inactive

get_value(item= CN(C)CCOC(c1ccc(Cl)cc1)c1ccccn1 (stereo not drawn) , readout=Potency) returns inactive

get_value(item= CCCCC(CC)COC(=O)/C=C/c1ccc(OC)cc1 (stereo not drawn) , readout=Potency) returns 9.77 µM (active)

###

- target-under-test: Voltage-gated inwardly rectifying potassium channel KCNH2 (Homo sapiens) (UniProt Q12809)
- Sequence (Q12809 whole entry, looked up): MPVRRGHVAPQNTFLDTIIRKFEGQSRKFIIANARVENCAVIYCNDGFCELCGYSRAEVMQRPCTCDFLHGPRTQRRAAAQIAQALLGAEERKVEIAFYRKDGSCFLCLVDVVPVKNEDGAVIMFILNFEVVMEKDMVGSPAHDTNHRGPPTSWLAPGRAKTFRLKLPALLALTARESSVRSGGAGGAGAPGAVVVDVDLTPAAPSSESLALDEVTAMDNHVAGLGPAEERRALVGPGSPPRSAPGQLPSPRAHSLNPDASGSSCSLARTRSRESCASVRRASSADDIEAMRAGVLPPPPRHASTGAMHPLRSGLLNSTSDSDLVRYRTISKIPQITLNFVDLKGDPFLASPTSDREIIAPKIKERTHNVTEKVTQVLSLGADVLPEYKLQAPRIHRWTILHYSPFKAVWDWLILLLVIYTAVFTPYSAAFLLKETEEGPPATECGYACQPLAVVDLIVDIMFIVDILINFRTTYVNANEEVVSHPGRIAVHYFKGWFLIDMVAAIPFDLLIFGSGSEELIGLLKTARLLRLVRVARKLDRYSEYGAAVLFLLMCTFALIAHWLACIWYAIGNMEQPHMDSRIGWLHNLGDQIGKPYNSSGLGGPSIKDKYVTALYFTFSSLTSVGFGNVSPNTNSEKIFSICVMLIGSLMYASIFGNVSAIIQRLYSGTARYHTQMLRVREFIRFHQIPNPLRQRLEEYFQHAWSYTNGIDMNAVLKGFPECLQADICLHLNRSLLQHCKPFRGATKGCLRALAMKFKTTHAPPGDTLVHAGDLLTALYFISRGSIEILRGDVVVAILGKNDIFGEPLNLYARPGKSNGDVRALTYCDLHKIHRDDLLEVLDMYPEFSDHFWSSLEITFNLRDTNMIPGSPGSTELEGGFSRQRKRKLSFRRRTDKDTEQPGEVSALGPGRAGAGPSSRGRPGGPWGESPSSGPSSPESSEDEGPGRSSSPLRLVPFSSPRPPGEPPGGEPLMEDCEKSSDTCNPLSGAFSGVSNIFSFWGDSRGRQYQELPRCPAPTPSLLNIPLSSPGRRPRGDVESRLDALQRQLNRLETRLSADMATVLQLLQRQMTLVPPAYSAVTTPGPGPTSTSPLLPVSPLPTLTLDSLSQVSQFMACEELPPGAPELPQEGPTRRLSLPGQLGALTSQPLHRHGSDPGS
- test-method-notes: qHTS Assay for Small Molecule Inhibitors of the Human hERG Channel Activity (AID 588834);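 further: lower thallium flux fluorescence means stronger hERG block; nearly all actives have a fitted effect of over 50% in size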
- run-parameters: U2OS BacMam hERG, FluxOR thallium flux fluorescence; series mostly up to 46.1 µM
Records with an inconclusive call do not appear. Activity calls are given as the source filed them. The call rests on the fitted dose curve; in most records, active means well fitted inhibition curve with a large enough effect; inconclusive means small, poorly fitted or top-dose-only effect; inactive means flat fitted curve, though single readings scatter.
Outcome field: choose from 1 for active, 0 for inactive

• CC(=O)N[C@@H](CCC(=O)O)C(=O)O = 0
• O=S(=O)(O)c1ccc(O)cc1 = 0
• C[C@H]1[C@H]2CC[C@H]3[C@@H]4CC=C5C[C@@H](N(C)C)CC[C@]5(C)[C@H]4CC[C@]23CN1C = 0
• NS(=O)(=O)c1cc2c(cc1Cl)NC(CC1CCCC1)NS2(=O)=O (stereo unspecified) = 0
• COc1cc(C(=O)N2CCCCCCC2)cc(OC)c1OC = 0

## Task Any idea what this test logged for c1ccc(-c2nc[nH]c2-c2ccccc2)cc1 ?
## Result 0

## Task Any idea what this test logged for CCCCCCCCCCCCCC(=O)OC(C)C ?
## Result 0

## Task Any idea what this test logged for CCOCCn1c(N2CCCN(C)CC2)nc2ccccc21 ?
## Result 1

## Task Any idea what this test logged for NS(=O)(=O)Cc1noc2ccccc12 ?
## Result 0

## Task Any idea what this test logged for NCc1ccccc1Sc1ccccc1CO ?
## Result 0

## Task Any idea what this test logged for CCCN(CCC)S(=O)(=O)c1ccc(C(=O)O)cc1 ?
## Result 0

###

- System: W2
- test-method-notes: qHTS profiling for inhibitors of Plasmodium falciparum proliferation (AID 504749); further: nearly all actives have a fitted effect of over 60% in size
- run-parameters: P. falciparum in erythrocytes, SYBR Green DNA, 72 h; series mostly up to 28.7 µM
Records with an inconclusive call do not appear. The source made the active and inactive calls. Calls come from the whole dose curve; as a rule, active = well fitted inhibition curve with a large enough effect; inconclusive = small, poorly fitted or top-dose-only effect; inactive = flat fitted curve, though single readings scatter.
Outcome field: choose from label 1 = active, label 0 = inactive

Here are 5 compounds together with their reported answers.
- CC(=O)NC(=O)c1ccccc1O: label 0
- O=C(O)c1ccc(S(=O)(=O)N(Cl)Cl)cc1: label 0
- CC(=O)O[C@]1(C(C)=O)CC[C@H]2[C@@H]3C=C(Cl)C4=CC(=O)CC[C@]4(C)[C@H]3CC[C@@]21C: label 1
- COc1ccc(/C=N/NC(=O)c2ccncc2)cc1OC: label 0
- COc1cc(NS(=O)(=O)c2ccc(N)cc2)ncn1: label 0

We now examine a further compound.
## Task Any idea what this test logged for N#CCC(=O)NN ?
## Result label 0

###

// reported activation per item
- target-under-test: Glucocorticoid receptor (Homo sapiens) (UniProt P04150)
- Sequence (P04150 whole entry, looked up): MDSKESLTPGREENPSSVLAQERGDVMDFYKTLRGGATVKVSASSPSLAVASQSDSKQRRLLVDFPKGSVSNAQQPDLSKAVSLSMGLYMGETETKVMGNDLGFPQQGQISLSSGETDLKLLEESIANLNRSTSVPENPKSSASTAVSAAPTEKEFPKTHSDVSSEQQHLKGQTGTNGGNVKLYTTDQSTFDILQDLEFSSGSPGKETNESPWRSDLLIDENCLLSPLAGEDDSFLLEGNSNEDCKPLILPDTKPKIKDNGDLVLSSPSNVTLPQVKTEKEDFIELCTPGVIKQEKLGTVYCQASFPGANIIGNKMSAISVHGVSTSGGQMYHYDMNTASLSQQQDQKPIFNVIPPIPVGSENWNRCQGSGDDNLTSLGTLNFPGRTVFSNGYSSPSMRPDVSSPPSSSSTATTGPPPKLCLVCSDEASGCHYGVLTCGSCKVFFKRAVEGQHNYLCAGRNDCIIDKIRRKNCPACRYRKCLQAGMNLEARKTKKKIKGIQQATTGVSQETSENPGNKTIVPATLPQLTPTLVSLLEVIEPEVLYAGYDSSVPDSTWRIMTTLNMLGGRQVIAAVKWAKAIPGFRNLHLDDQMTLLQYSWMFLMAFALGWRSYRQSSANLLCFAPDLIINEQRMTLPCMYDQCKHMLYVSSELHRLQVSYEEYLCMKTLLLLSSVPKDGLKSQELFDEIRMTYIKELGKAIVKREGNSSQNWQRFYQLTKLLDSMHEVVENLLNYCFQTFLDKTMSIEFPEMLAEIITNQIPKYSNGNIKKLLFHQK
- test-method-notes: qHTS assay for small molecule agonists of glucocorticoid receptor signaling (AID 588532);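 further: 100% = dexamethasone at 0.1 µM and 0% = DMSO only wells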
- run-parameters: HeLa MMTV-bla, beta-lactamase ratio, agonist, 18 h; active compounds read high; percent of dexamethasone control, DMSO zero
Inconclusive results are not listed. Activity calls are given as the source filed them. Calls come from the whole dose curve; as a rule, active = well fitted curve in the direction sought with a large enough effect in the signal ratio, with a control signal flat; inconclusive = small, poorly fitted or top-dose-only effect, or a change in a side signal; inactive = no such curve, though single readings can be large or run the other way; the % refers to the signal ratio.

- COc1ccc(C(Cl)=C(c2ccc(OC)cc2)c2ccc(OC)cc2)cc1: 2.85% (inactive)
- CN(C)C(=O)Nc1ccc(Cl)c(Cl)c1: -4.05% (inactive)
- CCOc1ccc(NC(C)=O)cc1: 0.725% (inactive)
- CCCCCCCCCCCCCCCCO: -8.72% (inactive)
- C#C[C@]1(O)CC[C@H]2[C@@H]3CCC4=Cc5oncc5C[C@]4(C)[C@H]3CC[C@@]21C: -5.91% (inactive)

get_value(item= CC(C)(C)CC(C)(C)c1ccc(O)c(-n2nc3ccccc3n2)c1 , readout=activation) returns -3.64% (inactive)

###

- System: DIV14
- test-method-notes: qHTS profiling for inhibitors of Plasmodium falciparum proliferation (AID 504749); further: nearly all actives have a fitted effect of over 60% in size
- run-parameters: P. falciparum in erythrocytes, SYBR Green DNA, 72 h; series mostly up to 28.7 µM
Results filed as inconclusive are left out. Active and inactive are the calls of the source. Calls come from the whole dose curve; as a rule, active = well fitted inhibition curve with a large enough effect; inconclusive = small, poorly fitted or top-dose-only effect; inactive = flat fitted curve, though single readings scatter.
Outcome field: choose from active, inactive

Here are 8 compounds together with their reported answers.
- OC[C@H]1O[C@@H]2O[C@H]3[C@H](O)[C@@H](O)[C@@H](O[C@H]4[C@H](O)[C@@H](O)[C@@H](O[C@H]5[C@H](O)[C@@H](O)[C@@H](O[C@H]6[C@H](O)[C@@H](O)[C@@H](O[C@H]7[C@H](O)[C@@H](O)[C@@H](O[C@H]8[C@H](O)[C@@H](O)[C@@H](O[C@H]1[C@H](O)[C@H]2O)O[C@@H]8CO)O[C@@H]7CO)O[C@@H]6CO)O[C@@H]5CO)O[C@@H]4CO)O[C@@H]3CO: inactive
- O=C(NCCc1c[nH]c2ccccc12)c1cccnc1: inactive
- N/C(=N\N=C\c1ccc(Cl)cc1)N/N=C/c1ccc(Cl)cc1: inactive
- Cc1ccccc1OCC(O)CO (centres undefined): inactive
- O=C(O)CCC(=O)Nc1ccc(S(=O)(=O)Nc2nccs2)cc1: inactive
- NC(=O)c1ccccc1O: inactive
- O=C(CN1CCN(Cc2ccc3c(c2)OCO3)CC1)N1c2ccccc2Sc2ccccc21: active
- Cc1cc(C)cc(OCC2CNC(=O)O2)c1 (centres undefined): inactive

## Task Any idea what this test logged for COc1cc(C)nc(-n2nc(C)cc2OC)n1 ?
## Result inactive
